Assay: Clast in CD-1 mouse pancreas at 30 mg/kg, po
Assay type: ADME, organism-based
Details: in vivo, read-out: Clast
readout kind: concentration
Remember to quote the unit after the number.

Consider the molecule CCN1CCN(C(=O)Nc2cc(-c3cn(C4CCOCC4)c4cnccc34)ccn2)CC1.Cl and give its measured concentration. 1320 nM

====

Assay: Cmax in CD-1 mouse at 30 mg/kg, po
Assay type: ADME, organism-based
Set-up: dose 30 mg/kg, route oral
Details: in vivo
readout kind: Cmax
Remember to quote the unit after the number.

Consider the compound CCN1CCN(C(=O)Nc2cc(-c3cn(C4CCOCC4)c4cnccc34)ccn2)CC1.Cl and give its measured Cmax. 1680 nM

====

Assay: Cmax in CD-1 mouse pancreas at 30 mg/kg, po
Type: ADME, organism-based
Set-up: dose 30 mg/kg, route oral
readout kind: Cmax (µM)
# value in µM; strip the unit string

Consider the compound CCN1CCN(C(=O)Nc2cc(-c3cn(C4CCOCC4)c4cnccc34)ccn2)CC1.Cl and give its measured Cmax. 13.3

====

Assay: Cmax in CD-1 mouse at 2 mg/kg, iv
Assay type: ADME, organism-based
Design: dose 2 mg/kg, route intravenous
Settings: in vivo
readout kind: Cmax (nM)
# value in nM; strip the unit string

Consider the compound CCN1CCN(C(=O)Nc2cc(-c3cn(C4CCOCC4)c4cnccc34)ccn2)CC1.Cl and give its measured Cmax. 1980

====

Assay: AUC in CD-1 mouse at 2 mg/kg, iv
Format: ADME, organism-based
Settings: in vivo
readout kind: AUC (µM·h)
# value in µM·h; strip the unit string

Consider the molecule CCN1CCN(C(=O)Nc2cc(-c3cn(C4CCOCC4)c4cnccc34)ccn2)CC1.Cl and give its measured AUC. 3.27

====

Assay: Tmax in CD-1 mouse at 30 mg/kg, po
Type: ADME, organism-based
Conditions: in vivo
readout kind: Tmax (h)
# value in h; strip the unit string

Consider the compound CCN1CCN(C(=O)Nc2cc(-c3cn(C4CCOCC4)c4cnccc34)ccn2)CC1.Cl and give its measured Tmax. 3

====

Experiment: Metabolic stability in rat liver microsomes assessed as intrinsic clearance at 1 uM incubated for 30 mins by LC-MS/MS analysis
Assay type: ADME, Microsome
Conditions: 0.5 h
CLH under 50% gets condition met, anything at or over 50% gets condition not met.

Worked examples, 10 compounds total:
| given smiles | assigned label |
| --- | --- |
| CC1(Cn2cc(-c3ccncc3)c3ccncc32)COC1 | condition not met |
| c1ccc(Cn2cc(-c3ccncc3)c3ccncc32)cc1 | condition not met |
| O=C(Nc1cc(-c2cn(-c3ccccc3)c3cnccc23)ccn1)NC1CC1 | condition not met |
| O=C(Nc1cc(-c2cn(C3CCOCC3)c3cnccc23)ccn1)N1CCOCC1 | condition met |
| CC(C)Cn1cc(-c2ccncc2)c2ccncc21 | condition not met |
| c1cc(-c2cn(CC3CC3)c3cnccc23)ccn1 | condition not met |
| O=C(Nc1cc(-c2cn(C3CCOCC3)c3cnccc23)ccn1)NC1CC1 | condition met |
| CC1(C)CN(C(=O)Nc2cc(-c3cn(C4CCOCC4)c4cnccc34)ccn2)C1 | condition met |
| c1ccc(-n2cc(-c3ccncc3)c3ccncc32)cc1 | condition not met |
| Nc1cc(-c2cn(-c3ccccc3)c3cnccc23)ccn1 | condition not met |

Please turn your attention to the following entry.
For this compound, is CLH lower than 50%? C[C@@H]1CN(C(=O)Nc2cc(-c3cn(C4CCOCC4)c4cnccc34)ccn2)C[C@H](C)O1 condition met

====

Test: Clearance in CD-1 mouse at 2 mg/kg, iv
Type: ADME, organism-based
Conditions: in vivo
readout kind: clearance (mL/min/kg)
# value in mL/min/kg; strip the unit string

Consider the molecule CCN1CCN(C(=O)Nc2cc(-c3cn(C4CCOCC4)c4cnccc34)ccn2)CC1.Cl and give its measured clearance. 23.5

====

Assay: Clast in CD-1 mouse at 2 mg/kg, iv
Format: ADME, organism-based
Conditions: in vivo, read-out: Clast
readout kind: concentration (nM)
# value in nM; strip the unit string

Consider the molecule CCN1CCN(C(=O)Nc2cc(-c3cn(C4CCOCC4)c4cnccc34)ccn2)CC1.Cl and give its measured concentration. 36.6

====

Assay: Tmax in CD-1 mouse pancreas at 30 mg/kg, po
Type: ADME, organism-based
readout kind: Tmax (h)
# value in h; strip the unit string

Consider the compound CCN1CCN(C(=O)Nc2cc(-c3cn(C4CCOCC4)c4cnccc34)ccn2)CC1.Cl and give its measured Tmax. 3

====

Assay: Volume of distribution at steady state in CD-1 mouse at 2 mg/kg, iv
Type: ADME, organism-based
Conditions: in vivo, read-out: Vdss
readout kind: Vd (L/kg)
# value in L/kg; strip the unit string

Consider the molecule CCN1CCN(C(=O)Nc2cc(-c3cn(C4CCOCC4)c4cnccc34)ccn2)CC1.Cl and give its measured Vd. 11

====

Reported CLH values are given for each entry in this list.
Experiment: Metabolic stability in human liver microsomes assessed as intrinsic clearance at 1 uM incubated for 30 mins by LC-MS/MS analysis
Assay type: ADME, Microsome
Settings: 0.5 h
# value in %; strip the unit string

| given smiles | readout kind | numeric value |
| --- | --- | --- |
| CCN1CCN(C(=O)Nc2cc(-c3cn(C4CCOCC4)c4cnccc34)ccn2)CC1 | CLH | 28 |

Consider the compound CC1(Cn2cc(-c3ccncc3)c3ccncc32)COC1 and give its measured CLH. 39

And what about the compound c1ccc(-n2cc(-c3ccncc3)c3ccncc32)cc1 ? 92

And what about the compound c1ccc(Cn2cc(-c3ccncc3)c3ccncc32)cc1 ? 83

====

Assay: AUC in CD-1 mouse pancreas at 30 mg/kg, po
Assay type: ADME, organism-based
readout kind: AUC
Remember to quote the unit after the number.

Consider the compound CCN1CCN(C(=O)Nc2cc(-c3cn(C4CCOCC4)c4cnccc34)ccn2)CC1.Cl and give its measured AUC. 144 µM·h

====

Test: Metabolic stability in mouse liver microsomes assessed as intrinsic clearance at 1 uM incubated for 30 mins by LC-MS/MS analysis
Format: ADME, Microsome
Conditions: 0.5 h
Values of CLH greater than or equal to 90% map to satisfied; values below map to not satisfied.

Worked examples, 5 molecules total:
| given smiles | assigned label |
| --- | --- |
| C[C@@H]1CN(C(=O)Nc2cc(-c3cn([C@H]4CC[C@@](C)(O)CC4)c4cnccc34)ccn2)C[C@H](C)O1 | not satisfied |
| CCN1CCN(C(=O)Nc2cc(-c3cn(C4CCOCC4)c4cnccc34)ccn2)CC1 | not satisfied |
| CC(C)Cn1cc(-c2ccncc2)c2ccncc21 | satisfied |
| O=C(Nc1cc(-c2cn(-c3ccccc3)c3cnccc23)ccn1)C1CC1 | not satisfied |
| O=C(Nc1cc(-c2cn(-c3ccccc3)c3cnccc23)ccn1)NC1CC1 | not satisfied |

Threshold query (CLH >= 90%) on Nc1cc(-c2cn(-c3ccccc3)c3cnccc23)ccn1 satisfied

And what about the molecule C[C@@H]1CN(C(=O)Nc2cc(-c3cn(C4CCOCC4)c4cnccc34)ccn2)C[C@H](C)O1 ? not satisfied

And what about the molecule c1cc(-c2cn(CC3CC3)c3cnccc23)ccn1 ? satisfied

And what about the molecule c1ccc(-n2cc(-c3ccncc3)c3ccncc32)cc1 ? satisfied

And what about the molecule O=C(Nc1cc(-c2cn(C3CCOCC3)c3cnccc23)ccn1)NC1CC1 ? not satisfied

And what about the molecule O=C(Nc1cc(-c2cn(C3CCOCC3)c3cnccc23)ccn1)N1CCOCC1 ? not satisfied

And what about the molecule CC1(C)CN(C(=O)Nc2cc(-c3cn(C4CCOCC4)c4cnccc34)ccn2)C1 ? not satisfied

====

Assay: Oral bioavailability in CD-1 mouse at 30 mg/kg
Format: ADME, organism-based
Conditions: in vivo
readout kind: bioavailability

Consider the compound CCN1CCN(C(=O)Nc2cc(-c3cn(C4CCOCC4)c4cnccc34)ccn2)CC1.Cl and give its measured bioavailability. 22.3%

====

Assay: Half life in CD-1 mouse at 2 mg/kg, iv
Assay type: ADME, organism-based
Conditions: in vivo
readout kind: half-life (h)
# value in h; strip the unit string

Consider the molecule CCN1CCN(C(=O)Nc2cc(-c3cn(C4CCOCC4)c4cnccc34)ccn2)CC1.Cl and give its measured half-life. 6.6

====

Experiment: AUC in CD-1 mouse at 30 mg/kg, po
Assay type: ADME, organism-based
Conditions: in vivo
readout kind: AUC (µM·h)
# value in µM·h; strip the unit string

Consider the molecule CCN1CCN(C(=O)Nc2cc(-c3cn(C4CCOCC4)c4cnccc34)ccn2)CC1.Cl and give its measured AUC. 11

====

Assay: Metabolic stability in rat liver microsomes assessed as intrinsic clearance at 1 uM incubated for 30 mins by LC-MS/MS analysis
Format: ADME, Microsome
Conditions: 0.5 h
Reported CLH values are given for each entry in this list.
Remember to quote the unit after the number.

| given smiles | readout kind | result |
| --- | --- | --- |
| O=C(Nc1cc(-c2cn(-c3ccccc3)c3cnccc23)ccn1)C1CC1 | CLH | 50% |

Consider the compound CCN1CCN(C(=O)Nc2cc(-c3cn(C4CCOCC4)c4cnccc34)ccn2)CC1 and give its measured CLH. 18%

And what about the compound C[C@@H]1CN(C(=O)Nc2cc(-c3cn([C@H]4CC[C@@](C)(O)CC4)c4cnccc34)ccn2)C[C@H](C)O1 ? 18%

And what about the compound c1cc(-c2cn(C3CCOCC3)c3cnccc23)ccn1 ? 83%

All values here come from ChEMBL document CHEMBL4602691.
